target: TNAP (Homo sapiens (Human))
Sequence (P05186 18-501): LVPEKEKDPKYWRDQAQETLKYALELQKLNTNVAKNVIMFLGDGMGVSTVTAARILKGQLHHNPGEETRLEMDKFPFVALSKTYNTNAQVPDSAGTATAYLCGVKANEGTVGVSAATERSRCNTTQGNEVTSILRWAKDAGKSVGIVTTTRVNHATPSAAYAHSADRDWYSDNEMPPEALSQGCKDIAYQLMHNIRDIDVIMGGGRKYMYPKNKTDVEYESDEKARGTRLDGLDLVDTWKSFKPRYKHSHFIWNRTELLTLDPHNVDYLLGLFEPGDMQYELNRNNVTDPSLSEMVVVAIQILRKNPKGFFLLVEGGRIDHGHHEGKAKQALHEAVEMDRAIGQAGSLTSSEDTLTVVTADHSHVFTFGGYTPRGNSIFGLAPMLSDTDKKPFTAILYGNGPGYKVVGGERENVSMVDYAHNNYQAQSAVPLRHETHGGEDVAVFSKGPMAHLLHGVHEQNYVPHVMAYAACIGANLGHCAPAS
pIC50: −log10 of the molar value.
readout kind: pIC50

>  <item smiles>
COc1ccc(OC)c(S(=O)(=O)Nc2cncc(-c3ccc(C#N)cc3)c2)c1

>  <readout kind>
pIC50

>  <observed>
> 7.00

$$$$
>  <item smiles>
COc1ccc(OC)c(S(=O)(=O)Nc2ccc(N(C)C)nc2)c1

>  <readout kind>
pIC50

>  <observed>
< 6.00

$$$$
>  <item smiles>
COc1ccc(OC)c(S(=O)(=O)Nc2cncc(C(=O)N3CCOCC3)c2)c1

>  <readout kind>
pIC50

>  <observed>
6.00 to 7.00

$$$$
>  <item smiles>
COc1ccc(-c2ccccc2)cc1S(=O)(=O)Nc1cccnc1

>  <readout kind>
pIC50

>  <observed>
6.00 to 7.00

$$$$
>  <item smiles>
COc1ccc(OC)c(S(=O)(=O)N(Cc2ccccc2)c2cnc3ccccc3c2)c1

>  <readout kind>
pIC50

>  <observed>
< 6.00

$$$$
>  <item smiles>
C#CCN(c1cnc2ccccc2c1)S(=O)(=O)c1cc(OC)ccc1OC

>  <readout kind>
pIC50

>  <observed>
< 6.00

$$$$
>  <item smiles>
COc1ccc(OC)c(S(=O)(=O)Nc2ccc(N)nc2)c1

>  <readout kind>
pIC50

>  <observed>
< 6.00

$$$$
>  <item smiles>
COc1ccc(S(=O)(=O)Nc2cccnc2)cc1Cl

>  <readout kind>
pIC50

>  <observed>
< 6.00

$$$$
>  <item smiles>
COc1ccc(OC)c(S(=O)(=O)Nc2cncc(-c3ccccc3OC)c2)c1

>  <readout kind>
pIC50

>  <observed>
6.00 to 7.00

$$$$
>  <item smiles>
COc1ccc(Cl)cc1S(=O)(=O)Nc1cncc(-c2ccc(F)cc2)c1

>  <readout kind>
pIC50

>  <observed>
> 7.00

$$$$
>  <item smiles>
COc1ccc(Br)cc1S(=O)(=O)Nc1cncc(-c2cccs2)c1

>  <readout kind>
pIC50

>  <observed>
> 7.00

$$$$
>  <item smiles>
COc1ccc(-c2ccccc2)cc1S(=O)(=O)Nc1cnc2ccccc2c1

>  <readout kind>
pIC50

>  <observed>
6.00 to 7.00

$$$$
>  <item smiles>
O=S(=O)(Nc1cncc(-c2ccco2)c1)c1cc(Cl)ccc1OC(F)(F)F

>  <readout kind>
pIC50

>  <observed>
> 7.00

$$$$
>  <item smiles>
COc1ccc(Br)cc1S(=O)(=O)Nc1cc(C)no1

>  <readout kind>
pIC50

>  <observed>
6.00 to 7.00

$$$$
>  <item smiles>
COc1ccc(-c2cncc(NS(=O)(=O)c3cc(OC)ccc3OC)c2)cc1

>  <readout kind>
pIC50

>  <observed>
> 7.00

$$$$
>  <item smiles>
O=S(=O)(Nc1cnc2ccccc2c1)c1cc(Cl)ccc1OC(F)(F)F

>  <readout kind>
pIC50

>  <observed>
> 7.00

$$$$
>  <item smiles>
COc1ccc(Cl)cc1S(=O)(=O)Nc1cncc(-c2ccc(C(F)(F)F)cc2)c1

>  <readout kind>
pIC50

>  <observed>
6.00 to 7.00

$$$$
>  <item smiles>
COc1ccc(OC(F)(F)F)cc1S(=O)(=O)Nc1cncc(-c2cccs2)c1

>  <readout kind>
pIC50

>  <observed>
> 7.00

$$$$

---

pIC50: −log10 of the molar value.
Dear all, this message contains pIC50 results, target or system TNAP (Homo sapiens (Human), UniProt P05186).
readout kind: pIC50

>  <item smiles>
CCCNC(=O)c1cncc(NS(=O)(=O)c2cc(OC)ccc2OC)c1

>  <observed>
6.00 to 7.00

$$$$
>  <item smiles>
COc1ccc(Br)cc1S(=O)(=O)N(CCN(C)C)c1cnc2ccccc2c1

>  <observed>
< 6.00

$$$$
>  <item smiles>
CCCNC(=O)c1cncc(NS(=O)(=O)c2cc(Cl)ccc2OC(F)(F)F)c1

>  <observed>
< 6.00

$$$$
>  <item smiles>
O=S(=O)(Nc1cncc(-c2cnccn2)c1)c1cc(Cl)ccc1OC(F)(F)F

>  <observed>
6.00 to 7.00

$$$$

Origin of measurements: patent US10370333B2
